Test system: IGROV-1
Experiment: NCI tumour cell line growth inhibition, 48 h
The source made the active and inactive calls. Cut-off read from the data, not from the text of the source: active = GI50 up to about 1.1 µM and inactive = higher.
Classes to choose from: active, inactive

Check out these entries, answers already filled in.
INSERT INTO assay_data (compound, category_label) VALUES
  ('O=C(O/C(=C(/N=N/c1ccccc1)c1ccccc1)c1ccccc1)c1ccccc1', 'inactive'),
  ('CC(=O)OC(C)(C)[C@H]1O[C@]23O[C@]1(C)C[C@@H](C)[C@@H]2[C@@]1(C)CC[C@@]24C[C@@]25CC[C@H](O[C@@H]2OC[C@@H](O)[C@H](O)[C@H]2O)C(C)(C)[C@@H]5CC[C@H]4[C@]1(C)[C@H]3O', 'inactive'),
  ('N=C(N)SCCN1CCCCC1', 'inactive'),
  ('O=C(Nc1cccc(F)c1)c1cc2ccc(O)cc2o/c1=N\c1cccc(F)c1', 'inactive'),
  ('CC(C)(C)OC(=O)NCCC(=O)NC1(c2cc3ccccc3s2)CCCCC1', 'inactive');

Q. What was the test verdict on "O=C(N/C(=C\c1cc(Cl)ccc1Cl)c1nc2ccccc2[nH]1)c1ccccc1" ?
A. inactive

Q. Please state the recorded outcome for this compound: CCOC(=O)N(C)CCC1CC=CC(=O)C1c1cccc(OC)c1OC (stereo not given)
A. inactive

Q. Hey, what did the test say about C=C1C[C@@H]2CC[C@@]34CC5O[C@H]6C(O[C@H]7CC[C@H](CC(=O)O[C@@H]8[C@@H](C)[C@@H]9O[C@@H]%10C[C@]%11(C[C@@H]%12O[C@]%13(C[C@H](C)[C@@H]%14O[C@@H]%15CC(C(COC(C)=O)OC(C)=O)O[C@@H]%15C[C@@H]%14O%13)C[C@H](C)[C@@H]%12O%11)O[C@@H]%10C[C@@H]9O[C@H]8CC8O[C@@H](CC[C@@H]1O2)C[C@@H](C)C8(O)CO)O[C@@H]7[C@@H]6O3)[C@H]5O4 (stereo not given in full) ?
A. active

Q. Fill in: this test's call for COc1cc2c(c(OC)c1OC)-c1ccc(SC)c(=O)cc1C(CC(=O)Oc1cccc([N+](=O)[O-])c1)C2 (stereo not given) is ___
A. inactive

Q. Outcome logged for "COCOc1ccc(OC)cc1" in this assay:
A. inactive

Q. GET /call?item= "N#CC1=C(N2CCCC2)NC(=O)CC1=O" returns the recorded outcome of this test.
A. inactive

Q. Which outcome was assigned to "CCN1c2nc3ccccc3nc2N(CC)c2nc3ccccc3nc21" in this test?
A. inactive

Q. Which result was noted for this compound in the test: "COC(=O)c1ccc(/C=N/c2cc(C)nn2-c2ccccc2)cc1"
A. inactive
